subject of test: human PAD4 (hPAD4) (Homo sapiens (Human))
assay overview: RFMS Human PAD4 Functional Assay 1
test context: RFMS assay 1; 5 nM hPAD4, 250 μM BAEE substrate, 50 μM calcium, 37° C.
pIC50 reference
Answer as the number alone; pIC50 is minus log10 of concentration in mol/L.

Use these answered entries as a reference point.
compound="COCC(=O)N1CC(c2cccc3cc(-c4nn5cc(C(=O)N6CCC[C@@H](N)C6)cc(OC)c5c4C)n(CC4CC4)c23)C1 [Example 528]" observed_property=pIC50 observed_result=4.82
compound="Cc1c(-c2cc3ccc(N4CCC(N(C)S(C)(=O)=O)CC4)cc3n2CC2CC2)nn2cc(C(=O)N3C[C@H](N)C[C@@H](F)C3)ccc12 [Example 354]" observed_property=pIC50 observed_result=6.82
compound="Cc1c(-c2cc3ccc(-c4cccc(O)c4F)nc3n2CC2CC2)nn2cc(C(=O)N3CCC[C@@H](N)C3)cc(F)c12 [Example 283]" observed_property=pIC50 observed_result=6.48
compound="Cc1c(-c2cc3ccc(Cl)nc3n2CC2CC2)nn2cc(C(=O)N3CC4CCC3[C@@H]4N)cnc12 (stereo partly drawn) [Example 108]" observed_property=pIC50 observed_result=6.04
compound="Cc1c(-c2cc3ccc(-c4ccc5cn[nH]c5c4F)cc3n2CC2CC2)nn2cc(C(=O)N3CC4CCC3[C@@H]4N)ccc12 (stereo partly drawn) [Example 330]" observed_property=pIC50 observed_result=6.82

Param item: COc1cc(C(=O)N2C[C@H](N)C[C@@H](F)C2)cn2nc(-c3cc4ccc(-c5ccc(NS(C)(=O)=O)cc5)cc4n3CC3CC3)c(C)c12 [Example 216] ; param system: human PAD4 (hPAD4) (Homo sapiens (Human)); output pIC50: 6.57

----------
subject of test: human PAD4 (hPAD4) (Homo sapiens (Human))
assay overview: RFMS Human PAD4 Functional Assay 1
test context: RFMS assay 1; 5 nM hPAD4, 250 μM BAEE substrate, 50 μM calcium, 37° C.
observed property: pIC50
To interpret pIC50, take it as minus log10 of a concentration measured in moles per litre.

Solved cases (4 shown):
molecule="Cc1c(-c2cc3cccnc3n2CC2CC2)oc2cc(C(=O)N3CC4CCC3[C@@H]4N)ccc12 (stereo partly drawn) [Example 164]" observed_result=6.20
molecule="Cc1c(-c2cc3cccc(C4CCN(C(=O)[C@H]5CC[C@H](O)CC5)CC4)c3n2CC2CC2)nn2cc(C(=O)N3CCC[C@@H](N)C3)cc(F)c12 [Example 415]" observed_result=6.34
molecule="Cc1c(-c2cc3cccc(OC[C@@H]4CCC(=O)N4)c3n2CC2CC2)nn2cc(C(=O)N3C[C@H](N)C[C@@H](F)C3)cc(F)c12 [Example 568]" observed_result=7.22
molecule="COc1cc(C(=O)N2CC3CCC2[C@@H]3N)cc2sc(-c3cc4ccc(-c5ccc6c(c5)CNC6=O)nc4n3CC3CC3)c(C)c12 (stereo partly drawn) [Example 132]" observed_result=6.32

Entry Cc1c(-c2cc3cccc(C4CN(C(=O)[C@H]5CC[C@@H](O)CC5)C4)c3n2CC2CC2)nn2cc(C(=O)N3C[C@H](N)C[C@@H](F)C3)ccc12 [Example 538] : pIC50 on human PAD4 (hPAD4) (Homo sapiens (Human)) = 7.40

The molecule COc1cc(C(=O)N2CC3CCC2[C@@H]3N)cc2oc(-c3cc4ccc(-c5ccc6c(c5)C(=O)NC6)cc4n3CC3CC3)c(C)c12 (stereo partly drawn) [Example 150] , tested on human PAD4 (hPAD4) (Homo sapiens (Human)), showed pIC50 of 6.73

----------
subject of test: human PAD4 (hPAD4) (Homo sapiens (Human), UniProt Q9UM07)
Sequence (Q9UM07 whole entry): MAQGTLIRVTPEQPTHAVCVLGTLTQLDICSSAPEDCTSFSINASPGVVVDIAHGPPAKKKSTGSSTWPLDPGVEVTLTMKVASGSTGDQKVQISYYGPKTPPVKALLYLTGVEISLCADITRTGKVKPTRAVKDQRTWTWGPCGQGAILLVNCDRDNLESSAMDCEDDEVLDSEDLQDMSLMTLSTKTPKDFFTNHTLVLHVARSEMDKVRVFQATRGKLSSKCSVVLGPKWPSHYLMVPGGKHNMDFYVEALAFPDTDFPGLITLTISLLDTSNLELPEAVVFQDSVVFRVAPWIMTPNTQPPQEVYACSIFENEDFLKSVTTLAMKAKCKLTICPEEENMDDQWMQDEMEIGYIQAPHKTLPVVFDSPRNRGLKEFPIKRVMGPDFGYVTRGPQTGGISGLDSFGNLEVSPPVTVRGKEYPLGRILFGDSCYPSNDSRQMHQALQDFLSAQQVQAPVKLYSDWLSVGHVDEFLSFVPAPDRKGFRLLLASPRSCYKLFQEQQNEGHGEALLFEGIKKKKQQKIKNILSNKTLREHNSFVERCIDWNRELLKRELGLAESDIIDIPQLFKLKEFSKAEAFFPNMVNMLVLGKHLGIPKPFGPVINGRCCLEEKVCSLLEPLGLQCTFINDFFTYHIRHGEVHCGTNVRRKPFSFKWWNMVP
assay overview: RFMS Human PAD4 Functional Assay 1
test context: RFMS assay 1; 5 nM hPAD4, 250 μM BAEE substrate, 50 μM calcium, 37° C.
# IC50 listing for each entry below
Respond with the bare value in nM.

compound="COc1cc(C(=O)N2CC3CCC2[C@@H]3N)cn2nc(-c3cc4ccc(-c5ccc(OC(F)F)cc5)nc4n3CC3CC3)c(C)c12 (stereo partly shown)" observed_result=1370
compound=COC(=O)N(C)C1CCN(c2ccc3cc(-c4nn5cc(C(=O)N6C[C@H](N)C[C@@H](F)C6)ccc5c4C)n(CC4CC4)c3c2)CC1 observed_result=810
compound=Cc1c(-c2cc3ccc(-c4ccn5c(C)nnc5c4)cc3n2CC2CC2)nn2cc(C(=O)N3CCC[C@@H](N)C3)ccc12 observed_result=100
compound=COc1cc(C(=O)N2C[C@H](N)C[C@@H](F)C2)cn2nc(-c3cc4ccc(-c5ccn6c(C)nnc6c5)cc4n3CC3CC3)c(C)c12 observed_result=65
compound=Cc1c(-c2cc3ccc(-c4ccn5c(C)nnc5c4)cc3n2CC2CC2)nn2cc(C(=O)N3C[C@H](N)C[C@@H](F)C3)ccc12 observed_result=160

The compound listed as COc1cc(C(=O)N2CC3CCC2[C@@H]3N)cc2sc(-c3cc4ccc(-c5ccc6c(c5)C(=O)NC6)nc4n3CC3CC3)c(C)c12 (stereo partly shown) has a reported IC50 of 233

compound COc1cc(C(=O)N2CC3CCC2[C@@H]3N)cc2sc(-c3cc4ccc(N5CCC(N)CC5)cc4n3CC3CC3)c(C)c12 (stereo partly shown) , IC50 observed: 38

Just so you know, measured IC50 for Cc1cc(-c2ccc3cc(-c4nn5cc(C(=O)N6CCC[C@@H](N)C6)ccc5c4C)n(CC4CC4)c3n2)ccc1C(N)=O came out at 250

Form field IC50, entry Cc1c(-c2cc3ccc(N4CCC(N5CCCC5=O)CC4)cc3n2CC2CC2)nn2cc(C(=O)N3CCC[C@@H](N)C3)ccc12 : 2280

----------
subject of test: human PAD4 (hPAD4) (Homo sapiens (Human), UniProt Q9UM07)
assay overview: RFMS Human PAD4 Functional Assay 1
test context: RFMS assay 1; 5 nM hPAD4, 250 μM BAEE substrate, 50 μM calcium, 37° C.
Procedure: RFMS Human PAD4 Functional Assay 1: Compounds were solubilized in 100% DMSO to achieve all) mM compound concentration. Compound stock solutions were stored at RT. A series of dilutions were prepared in DMSO and mixed 8 times with 20 μL mixing volume. Final top concentration of compound in the assay is 50 μM. […] MRM transition of product and internal standard were monitored at m/z 424.5 to 350.4 and m/z 293 to 247 respectively. […]
Reported IC50 values are given for each entry in this list.
Give your result in nM as a bare value.

compound="Cc1c(-c2cc3cccc(C4CCN(C(=O)C(C)(C)CO)CC4)c3n2CC2CC2)nn2cc(C(=O)N3CCC[C@@H](N)C3)ccc12 [Example 434]" observed_property=IC50 observed_result=250
compound="Cc1c(-c2cc3ccc(N4CCC(N5CCCC5=O)CC4)cc3n2CC2CC2)nn2cc(C(=O)N3C[C@H](N)C[C@@H](F)C3)ccc12 [Example 356]" observed_property=IC50 observed_result=2780

Let us examine a further case.
The compound listed as COc1cc(C(=O)N2CC3CCC2[C@@H]3N)cc2oc(-c3cc4ccc(N5CCC(N)CC5)cc4n3CC3CC3)c(C)c12 (stereo partly drawn) [Example 160] shows IC50 equal to 48

----------
pIC50 values for the molecules below.
subject of test: human PAD4 (hPAD4) (Homo sapiens (Human))
assay overview: RFMS Human PAD4 Functional Assay 1
test context: RFMS assay 1; 5 nM hPAD4, 250 μM BAEE substrate, 50 μM calcium, 37° C.
Keep it numeric: pIC50 is minus log10 of the concentration in mol/L.

molecule="COc1cc(C(=O)N2C[C@H](N)C[C@@H](F)C2)cn2nc(-c3cc4ccnc(OCC5CNC(=O)C5)c4n3CC3CC3)c(C)c12 (single isomer, unassigned; isomer 2) [Example 602]" observed_result=7.52

Value of measured pIC50 for the entry COc1cc(C(=O)N2CCC[C@@H](N)C2)cn2nc(-c3cc4cccc(C5CCN(C(=O)C6CC(O)(C(F)(F)F)C6)CC5)c4n3CC3CC3)c(C)c12 (mixture of isomers) : 7.40

response.value for COc1cc(C(=O)N2C[C@H](N)C[C@@H](F)C2)cn2nc(-c3cc4ccnc(OCCn5cncn5)c4n3CC3CC3)c(C)c12 (field: pIC50) = 7.52

Entry COc1cc(C(=O)N2CC3CCC2[C@@H]3N)cn2nc(-c3cc4ccc(-c5ccc(C(N)=O)c(C)c5)nc4n3CC3CC3)c(C)c12 (stereo partly drawn) , pIC50 reported as 7.15

pIC50 in this record for CO[C@@H](C)C(=O)N1CCC(c2cc(F)cc3cc(-c4nn5cc(C(=O)N6CCC[C@@H](N)C6)ccc5c4C)n(CC4CC4)c23)CC1 : 6.82

Origin of the recorded values: patent US12473304B2
